Molecular target: human GLP-1 receptor (GLP-1R) (human, UniProt P43220 24-463)
Sequence (P43220 24-463): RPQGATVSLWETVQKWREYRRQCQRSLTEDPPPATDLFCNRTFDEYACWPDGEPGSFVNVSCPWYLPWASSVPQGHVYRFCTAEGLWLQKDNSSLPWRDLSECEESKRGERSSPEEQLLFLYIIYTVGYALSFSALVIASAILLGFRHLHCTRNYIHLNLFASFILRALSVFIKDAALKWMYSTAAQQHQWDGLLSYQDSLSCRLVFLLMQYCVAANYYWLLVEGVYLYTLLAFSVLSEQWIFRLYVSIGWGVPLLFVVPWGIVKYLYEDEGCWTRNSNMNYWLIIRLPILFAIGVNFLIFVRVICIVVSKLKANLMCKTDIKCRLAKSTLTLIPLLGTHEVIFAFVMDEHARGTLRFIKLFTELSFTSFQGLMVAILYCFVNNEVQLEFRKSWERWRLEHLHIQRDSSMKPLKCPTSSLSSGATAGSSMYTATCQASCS
Assay: cell-based or functional assay
Where no end group is shown, it is not given here. [ ]: non-standard residue; d: D form. Formula III = not defined here; Aib = CC(C)(N)C(=O)O
Hi there, I'd appreciate the recorded GLP-1R pEC 50 for every entry that follows.

Look over these answered cases.
binder: WSQGTFTSDYSKYLDK(Formula III)KRAQEFV[Aib]WLEDEPSSGAPPPS-OH (reading uncertain) [Compound B23]
GLP-1R pEC 50: 6.5 pEC50
//
binder: YSHGTFTSDYSKYLDSARAQEFVK(Formula III)WLEDEPSSGAPPPS-NH2 (reading uncertain) [Compound B46]
GLP-1R pEC 50: < 6 pEC50

Continue with the next binder.
Consider YSHGTFTSDYSKYLD[Aib]KSAQEFVK(Formula III)WLEDEPSSGAPPPS-OH (reading uncertain) [Compound B14] . Its measured GLP-1R pEC 50 is < 6 pEC50
